Tested on: Human immunodeficiency virus 1
TEST SUMMARY: Antiviral activity against Human immunodeficiency virus 1 infected human MT4 cells assessed as inhibition of virus-induced cytopathic effect by MTT assay
Format: functional, organism-based
ASSAY CONTEXT: Human immunodeficiency virus 1, MT4
Field: pEC50. Provide a value for each of the compounds that follow.
Numbers only, as −log10 of the molar value.

Consider the worked cases shown below.
• N#CCN1C(=O)N(Cc2cccc(Cl)c2)S(=O)(=O)c2cscc21 = 7.00
• N#CCN1C(=O)N(Cc2cc(F)cc(F)c2)S(=O)(=O)c2cscc21 = 5.07
• CCN1C(=O)N(Cc2ccccn2)S(=O)(=O)c2cscc21 = 5.96
• O=C1N(Cc2ccccc2)c2cscc2S(=O)(=O)N1Cc1ccccc1 = 5.66
• CN1C(=O)N(Cc2cccc(Cl)c2)S(=O)(=O)c2cscc21 = 5.68
• CN1C(=O)N(Cc2ccccc2)S(=O)(=O)c2cscc21 = 5.57
• N#CCN1C(=O)N(Cc2ccccc2)S(=O)(=O)c2cscc21 = 6.06
• C#CCN1C(=O)N(Cc2cccc(Cl)c2)S(=O)(=O)c2cscc21 = 7.05

Items follow; give pEC50 for each.
1. O=C1N(c2ccccc2Cl)c2cscc2S(=O)(=O)N1Cc1ccccc1
2. N#CCN1C(=O)N(Cc2cccc(Br)c2)S(=O)(=O)c2cscc21
3. O=C1N(Cc2ccccc2)c2cscc2S(=O)(=O)N1CCc1ccccc1

[7.00, 7.30, 4.38]

====

Test system: Human immunodeficiency virus 1
TEST SUMMARY: Antiviral activity against Human immunodeficiency virus 1 infected human MT4 cells assessed as inhibition of virus-induced cytopathic effect by MTT assay
Assay type: functional, organism-based
ASSAY CONTEXT: Human immunodeficiency virus 1, MT4
pEC50: −log10 of the molar value.
Label class 1 when pEC50 >= 6; otherwise class 0.

* CCN1C(=O)N(CCc2ccccc2)S(=O)(=O)c2cscc21 | class 0

hey, is pEC50 for this one >= 6? N#CCN1C(=O)N(Cc2ccccn2)S(=O)(=O)c2cscc21
class 1

Another: C=CCN1C(=O)N(Cc2ccccc2)S(=O)(=O)c2cscc21
class 0

// repeat for N#CCCN1C(=O)N(Cc2ccccc2)S(=O)(=O)c2cscc21 and report
class 0

Subsequent entry: O=C1N(c2ccc(Cl)cc2)c2cscc2S(=O)(=O)N1Cc1ccccc1
class 0

Now the compound CCOC(=O)CN1C(=O)N(Cc2ccccc2)S(=O)(=O)c2cscc21
class 0

And CCN1C(=O)N(Cc2ccccc2Cl)S(=O)(=O)c2cscc21 ?
class 0

And CCN1C(=O)N(Cc2ccccc2)S(=O)(=O)c2cscc21 ?
class 0

Queued: CCN1C(=O)N(c2cccc(Cl)c2)S(=O)(=O)c2cscc21
class 0

Field entry: N#CCN1C(=O)N(Cc2cccc(F)c2)S(=O)(=O)c2cscc21
class 1

====

System: Human immunodeficiency virus 1
TEST SUMMARY: Antiviral activity against Human immunodeficiency virus 1 infected human MT4 cells assessed as inhibition of virus-induced cytopathic effect by MTT assay
Assay type: functional, organism-based
ASSAY CONTEXT: Human immunodeficiency virus 1, MT4
READOUT LABEL: pEC50
Give bare numbers, as −log10 of the molar value.

Sample answers from the record:
• O=C1N(Cc2ccccc2)c2cscc2S(=O)(=O)N1Cc1ccccn1 = 6.70
• CCN1C(=O)N(Cc2cccc(Cl)c2)S(=O)(=O)c2cscc21 = 7.05
• CCCN1C(=O)N(Cc2ccccc2)S(=O)(=O)c2cscc21 = 5.21
• N#CCN1C(=O)N(CCc2ccccc2)S(=O)(=O)c2cscc21 = 4.96
• C#CCN1C(=O)N(Cc2ccccc2)S(=O)(=O)c2cscc21 = 6.02

Now consider a different compound.
Report pEC50 for N#CCN1C(=O)N(Cc2cccnc2)S(=O)(=O)c2cscc21 please.
6.10
